assay: Solubility of gentisate Form 2 of Compound 1 in water, SGF, FaSSIF and FeSSIF after 4 hours at 37 °C (HPLC); format: physicochemical; conditions: simulated gastric fluid (SGF), pH 1.7, read-out: Solubility (calculated as the amount of free base of Compound 1)
Measured metric: solubility at 4 h

IN: Reported solubility at 4 h, compound O=P(O)(O)[C@@](CO)(COCc1nn[nH]n1)OC[C@H]1O[C@@H](n2ncc3c(NC4CCCC4)nc(Cl)nc32)[C@H](O)[C@@H]1O [Form 2 of a gentisate form of Compound 1] : ____
OUT: > 9710 µg/mL

* * *

assay: Solubility of gentisate Form 2 of Compound 1 in water, SGF, FaSSIF and FeSSIF after 4 hours at 37 °C (HPLC); assay type: physicochemical; conditions: fed-state simulated intestinal fluid (FeSSIF), pH 4.4, read-out: Solubility (calculated as the amount of free base of Compound 1)
Measured metric: solubility at 4 h

IN: Given the molecule O=P(O)(O)[C@@](CO)(COCc1nn[nH]n1)OC[C@H]1O[C@@H](n2ncc3c(NC4CCCC4)nc(Cl)nc32)[C@H](O)[C@@H]1O [Form 2 of a gentisate form of Compound 1] , what is its reported solubility at 4 h?
OUT: > 9420 µg/mL
